assay: leaching of Japan cedar blocks treated with LSA and chemical agents (Example 4); type: physicochemical; settings: in the presence of enzyme, 5% LSA, pH 8.1-8.8; species measured as bracketed (Copper, Zinc, Nickel, Boron, H = hinokitiol), else the agent named
# Elution Rate (%) Chemical Agent annotations

| compound | Elution Rate (%) Chemical Agent |
| --- | --- |
| CC1=CCC(C(C)(C)O)CC1 (stereo not drawn) [500 ppm α-terpineol, α-terpineol] | 0.6 |
| C=CCN=C=S [100 ppm Allyl isothiocyanate, Allyl isothiocyanate] | 2.2 |
| CC1=CC[C@@H]2C[C@H]1C2(C)C [500 ppm (1R)-(+)-α-pinene, (1R)-(+)-α-pinene] | 0.3 |
| Cc1cc2cccc(C)c2cc1C [10 ppm 2,3,5-Trimethylnaphthalene, 2,3,5-Trimethylnaphthalene] | 0.1 |
| O=CC=Cc1ccccc1 [100 ppm Cinnamaldehyde, Cinnamaldehyde] | 0.7 |
| CC(C)=CCCC(C)=CC=O [100 ppm citral, citral] | 1.8 |
| OB(O)O [1% Boric acid, Boric acid] | 25.1 |
| CC12CCC(CC1)C(C)(C)O2 [500 ppm cineole, cineole] | 0.2 |
| Nc1ccccc1N [200 ppm o-Phenylenediamine, o-Phenylenediamine] | 0.2 |

----------
test: leaching of Japan cedar blocks, powdery treatment agent stored 2 weeks (Example 21); type: physicochemical; conditions: powdery agent (10 mg enzyme + 10 g LSA + agent) stored 2 weeks, 5 g in 100 ml, Japan cedar
compounds and their reported Elution Rate (%) LSA

| structure | Elution Rate (%) LSA |
| --- | --- |
| O=C(OC[C@H]1O[C@@H](OC(=O)c2cc(O)c(O)c(OC(=O)c3cc(O)c(O)c(O)c3)c2)[C@H](OC(=O)c2cc(O)c(O)c(OC(=O)c3cc(O)c(O)c(O)c3)c2)[C@@H](OC(=O)c2cc(O)c(O)c(OC(=O)c3cc(O)c(O)c(O)c3)c2)[C@@H]1OC(=O)c1cc(O)c(O)c(OC(=O)c2cc(O)c(O)c(O)c2)c1)c1cc(O)c(O)c(OC(=O)c2cc(O)c(O)c(O)c2)c1 | 3.6 |
| OB(O)O | 0.6 |
| CC(C)c1cccc(=O)c(O)c1 | 0.6 |
| Nc1ccccc1N | 1.5 |

----------
test: leaching of Japan cedar blocks, treating mixture with tung oil (Example 8); type: physicochemical; settings: Example 1 enzyme, 5% LSA, 2,000 ppm tung oil, pH 8.1-8.5
// reported Elution Rate (%) LSA per item
measured endpoint: Elution Rate (%) LSA

| compound | result units | test value |
| --- | --- | --- |
| CC1=CC[C@@H]2C[C@H]1C2(C)C [500 ppm (1R)-(+)-α-pinene, (1R)-(+)-α-pinene] | % | 0.7 |
| CC(C)c1cccc(=O)c(O)c1 | % | 1.1 |
| C=CCN=C=S [100 ppm Allyl isothiocyanate, Allyl isothiocyanate] | % | 2.1 |
| O=CC=Cc1ccccc1 | % | 1.9 |
| CC1=CCC(C(C)(C)O)CC1 (centres unmarked) | % | 0.6 |
| CC(C)=CCCC(C)CCO (centres unmarked) | % | 1.7 |
| CC1CCC(C(C)C)C(O)C1 [500 ppm (1R,2S,5R)-(−)-menthol, (1R,2S,5R)-(−)-menthol] | % | 0.6 |
| CC12CCC(CC1)C(C)(C)O2 | % | 0.5 |
